Tested on: Growth hormone secretagogue receptor type 1 (Homo sapiens)
Sequence (Q92847 whole entry): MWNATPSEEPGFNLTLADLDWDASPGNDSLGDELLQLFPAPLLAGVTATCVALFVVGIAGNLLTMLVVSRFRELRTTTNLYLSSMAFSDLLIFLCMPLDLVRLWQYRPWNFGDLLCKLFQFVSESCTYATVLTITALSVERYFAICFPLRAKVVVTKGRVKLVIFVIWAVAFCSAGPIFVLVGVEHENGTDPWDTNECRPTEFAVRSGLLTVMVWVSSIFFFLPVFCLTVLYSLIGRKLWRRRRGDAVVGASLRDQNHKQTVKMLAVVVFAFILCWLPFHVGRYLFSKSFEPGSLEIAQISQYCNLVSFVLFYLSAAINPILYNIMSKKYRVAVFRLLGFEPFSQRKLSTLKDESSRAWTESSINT
Assay text: Inhibition of binding to human growth hormone secretagogue receptor
pIC50: −log10 of the molar value.

Compound | Result modifier | pIC50
Cc1onc(-c2c(Cl)cccc2Cl)c1C(=O)Nc1ccccc1CC1c2ccccc2CCN1C (stereo unspecified) | = | 6.01
Cc1onc(-c2c(Cl)cccc2Cl)c1C(=O)Nc1ccccc1C(=O)NCc1ccccc1 | = | 5.92
CCN(CC)C(=O)c1ccccc1NC(=O)c1c(-c2c(Cl)cccc2Cl)noc1C | = | 5.72
CCN(CC)c1ccc(NC(=O)c2c(-c3ccc(Cl)cc3)noc2C)cc1 | = | 5.15
CCN(CC)c1ccc(NC(=O)c2c(-c3cccc(Cl)c3)noc2C)cc1 | = | 4.73
CCc1cc(N(CC)CC)ccc1NC(=O)c1c(-c2c(Cl)cccc2Cl)noc1C | = | 6.43
CCN(CC)c1ccc(NC(=O)c2c(-c3c(Cl)cccc3Cl)noc2CCC2OCCCO2)c(C)c1 | = | 8.05
CCCN(CC)c1ccc(NC(=O)c2c(-c3c(Cl)cccc3Cl)noc2C)cc1 | = | 6.39
CCN(CC)Cc1ccc(NC(=O)c2c(-c3c(Cl)cccc3Cl)noc2C)cc1 | < | 5.00
CCN(CC)c1ccc(NC(=O)c2c(-c3c(Cl)cccc3Cl)noc2C)c(C#N)c1 | = | 5.05
Cc1onc(-c2c(Cl)cccc2Cl)c1C(=O)Nc1ccccc1C(=O)NCc1ccc2c(c1)OCO2 | = | 6.46
CCN(CC)c1ccc(NC(=O)c2c(-c3ccccc3Br)noc2C)cc1 | = | 6.47
CCN(CC)c1ccc(NC(=O)c2c(-c3c(Cl)cccc3Cl)noc2C)c(C(F)(F)F)c1 | = | 5.39
CCN(CC)c1ccc(NC(=O)c2c(-c3c(Cl)cccc3Cl)noc2C)c(OC)c1 | = | 6.22
CCC(CC)c1ccc(NC(=O)c2c(-c3c(Cl)cccc3Cl)noc2C)cc1 | < | 5.00
CCN(CC)c1ccc(NC(=O)c2c(-c3ccccc3[N+](=O)[O-])noc2C)cc1 | = | 6.26
Cc1onc(-c2c(Cl)cccc2Cl)c1C(=O)Nc1ccc(N2CCCCC2)cc1 | < | 5.00
CCN(CC)c1ccc(NC(=O)c2c(-c3ccccc3OC)noc2C)cc1 | = | 5.40
Cc1onc(-c2c(Cl)cccc2Cl)c1C(=O)Nc1ccccc1C(=O)N1CCCCCC1 | = | 6.07
CCN(CC)c1ccc(NC(=O)c2c(-c3c(Cl)cccc3Cl)noc2C)c(C)c1 | = | 7.43
O=C(Nc1ccccc1C(=O)N1CCCCC1)c1c(-c2c(Cl)cccc2Cl)noc1CCC1OCCCO1 | = | 5.12
CCNc1ccc(NC(=O)c2c(-c3c(Cl)cccc3Cl)noc2C)cc1 | < | 5.00
CCN(CC)c1ccc(NC(=O)c2c(-c3c(Cl)cccc3Cl)noc2C)cc1Cl | < | 5.00
CCN(CC)c1ccc(NC(=O)c2c(-c3ccccc3)noc2C)cc1 | = | 5.09
CCN(CC)c1ccc(NC(=O)c2c(-c3ccccc3-c3ccccc3)noc2C)cc1 | = | 5.89
Cc1onc(-c2c(Cl)cccc2Cl)c1C(=O)Nc1ccccc1C(=O)N1CCCCC1 | = | 5.66
CCN(C)c1ccc(NC(=O)c2c(-c3c(Cl)cccc3Cl)noc2C)cc1 | = | 5.26
CCN(CCO)c1ccc(NC(=O)c2c(-c3c(Cl)cccc3Cl)noc2C)cc1 | = | 5.04
CCN(CC)c1ccc(NC(=O)c2c(-c3c(Cl)cccc3Cl)noc2C)cc1C | < | 7.00
CCN(CC)c1ccc(NC(=O)c2c(-c3ccccc3Cl)noc2C)cc1 | = | 6.16
CCN(C(C)=O)c1ccc(NC(=O)c2c(-c3c(Cl)cccc3Cl)noc2C)cc1 | < | 5.00
